- ASSAY TARGET: Atlantic cod Ahr2a (Gadus morhua, UniProt A0A6H1Z3G8)
- Sequence (A0A6H1Z3G8 1-1127): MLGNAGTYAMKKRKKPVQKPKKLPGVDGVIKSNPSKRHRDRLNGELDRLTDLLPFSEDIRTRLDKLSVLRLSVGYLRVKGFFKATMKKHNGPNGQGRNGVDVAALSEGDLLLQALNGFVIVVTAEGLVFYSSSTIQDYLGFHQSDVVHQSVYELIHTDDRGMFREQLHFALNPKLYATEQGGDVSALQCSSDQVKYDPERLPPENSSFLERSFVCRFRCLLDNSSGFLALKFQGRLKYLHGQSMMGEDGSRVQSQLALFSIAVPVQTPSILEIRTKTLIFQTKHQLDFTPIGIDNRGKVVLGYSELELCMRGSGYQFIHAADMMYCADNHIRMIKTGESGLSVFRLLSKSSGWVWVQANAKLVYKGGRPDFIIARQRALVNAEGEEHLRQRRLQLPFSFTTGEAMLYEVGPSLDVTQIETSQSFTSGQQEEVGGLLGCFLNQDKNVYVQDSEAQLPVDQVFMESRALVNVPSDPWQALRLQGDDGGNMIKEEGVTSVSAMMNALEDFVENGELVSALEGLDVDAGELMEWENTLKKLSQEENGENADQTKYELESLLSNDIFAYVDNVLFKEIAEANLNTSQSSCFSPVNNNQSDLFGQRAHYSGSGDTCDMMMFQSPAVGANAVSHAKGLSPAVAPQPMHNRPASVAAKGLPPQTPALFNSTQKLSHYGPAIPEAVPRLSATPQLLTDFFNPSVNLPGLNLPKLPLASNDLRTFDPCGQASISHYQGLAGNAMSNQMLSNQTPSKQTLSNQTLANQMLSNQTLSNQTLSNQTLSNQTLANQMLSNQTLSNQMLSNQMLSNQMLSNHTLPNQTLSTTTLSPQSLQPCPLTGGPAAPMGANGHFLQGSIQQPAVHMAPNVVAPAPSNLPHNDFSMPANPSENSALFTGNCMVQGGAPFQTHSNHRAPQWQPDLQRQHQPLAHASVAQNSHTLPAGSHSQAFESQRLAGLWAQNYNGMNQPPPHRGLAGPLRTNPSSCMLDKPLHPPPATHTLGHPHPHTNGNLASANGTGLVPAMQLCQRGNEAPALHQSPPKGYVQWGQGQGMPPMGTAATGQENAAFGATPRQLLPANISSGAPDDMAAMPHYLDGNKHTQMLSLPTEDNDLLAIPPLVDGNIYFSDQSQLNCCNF
- METHOD: cell-based
- CONDITION SET: percent of maximum efficacy determined for TCDD; COS-7 cells, 24 h exposure; None = no agonistic response significantly different from solvent; read-out: Ahr2a Relative Emax (%)
Field: class. Source value: Emax. Ranges: range 1 = under 60%, range 2 = from 60% up to 90%, range 3 = 90% and over

Solved entries (count: 5):
MOL SMILES	CLASS ASSIGNMENT
Cc1cc2ccccc2c2ccc3ccccc3c12	range 2
COc1ccc2ccc3c4ccccc4ccc3c2c1	range 2
COc1cccc2ccc3c4ccccc4ccc3c12	range 3
Oc1ccc2ccc3c4ccccc4ccc3c2c1	range 2
Cc1cccc2ccc3c4ccccc4ccc3c12	range 1

Input: Band of `Cc1ccc2ccc3c4ccccc4ccc3c2c1` ?
Output: range 3

Input: Band of `COc1cc2ccc3c4ccccc4ccc3c2cc1OC` ?
Output: range 1

Input: Band of `CCCc1ccc2ccc3ccccc3c2c1` ?
Output: range 1

Input: Band of `COc1ccc2c(ccc3c4ccccc4ccc23)c1` ?
Output: range 3
